# Study system: CYP1A2 (Homo sapiens, UniProt P05177)
# Sequence (P05177 whole entry): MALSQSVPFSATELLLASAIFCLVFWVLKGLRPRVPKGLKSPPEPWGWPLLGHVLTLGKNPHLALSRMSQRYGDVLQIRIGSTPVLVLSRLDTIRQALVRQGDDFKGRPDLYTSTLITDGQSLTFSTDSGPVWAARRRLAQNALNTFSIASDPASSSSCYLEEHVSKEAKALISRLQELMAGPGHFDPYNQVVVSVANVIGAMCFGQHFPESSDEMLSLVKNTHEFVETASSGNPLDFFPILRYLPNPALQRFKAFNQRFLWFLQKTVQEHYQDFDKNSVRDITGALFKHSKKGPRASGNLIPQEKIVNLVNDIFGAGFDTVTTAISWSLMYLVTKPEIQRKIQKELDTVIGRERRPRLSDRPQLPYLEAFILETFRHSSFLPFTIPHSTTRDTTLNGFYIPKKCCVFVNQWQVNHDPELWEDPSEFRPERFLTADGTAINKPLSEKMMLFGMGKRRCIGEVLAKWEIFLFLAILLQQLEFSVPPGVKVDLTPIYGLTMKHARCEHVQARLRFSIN
# Procedure summary: Inhibition of recombinant human CYP1A2 expressed in baker's yeast-derived microsomes (Sacchrosomes) at 10 uM using 3-cyano-7-ethoxycoumarin substrate by EROD assay relative to control
# Assay type: ADME
# Measurement parameters: probe 3-cyano-7-ethoxycoumarin
Entries and their inhibition at 10 µM

| Smiles structure | Study system | inhibition at 10 µM / % |
| --- | --- | --- |
| COc1ccc(-c2cc(=O)c3c(O)c(OC)c(OC)cc3o2)cc1OC | CYP1A2 (Homo sapiens, UniProt P05177) | 90 |
| COc1c2ccoc2c(OCC=C(C)C)c2oc(=O)ccc12 | CYP1A2 (Homo sapiens, UniProt P05177) | 96 |
| COc1c2occc2c(OC)c2c(=O)cc(C)oc12 | CYP1A2 (Homo sapiens, UniProt P05177) | 99 |
| Nc1nccc(-c2c[nH]c3ccc(Br)cc23)n1 | CYP1A2 (Homo sapiens, UniProt P05177) | 55 |
| COc1c2ccoc2c(OC)c2oc(=O)ccc12 | CYP1A2 (Homo sapiens, UniProt P05177) | 62 |

---

# Study system: CYP1A1 (Homo sapiens, UniProt P04798)
# Sequence (P04798 whole entry): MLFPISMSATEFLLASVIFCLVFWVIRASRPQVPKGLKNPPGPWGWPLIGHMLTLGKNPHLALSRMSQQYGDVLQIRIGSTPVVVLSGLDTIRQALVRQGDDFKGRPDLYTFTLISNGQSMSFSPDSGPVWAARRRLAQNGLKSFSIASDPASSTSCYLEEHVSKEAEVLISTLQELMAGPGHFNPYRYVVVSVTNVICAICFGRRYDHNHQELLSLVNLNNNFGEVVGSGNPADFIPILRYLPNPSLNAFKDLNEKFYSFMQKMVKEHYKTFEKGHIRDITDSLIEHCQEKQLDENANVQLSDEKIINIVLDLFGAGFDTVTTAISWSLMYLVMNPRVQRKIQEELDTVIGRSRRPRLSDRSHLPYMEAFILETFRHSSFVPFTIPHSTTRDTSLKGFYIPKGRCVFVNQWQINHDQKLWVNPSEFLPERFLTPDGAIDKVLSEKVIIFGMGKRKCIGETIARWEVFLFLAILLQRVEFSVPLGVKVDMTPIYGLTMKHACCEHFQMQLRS
# Procedure summary: Inhibition of recombinant human CYP1A1 expressed in baker's yeast-derived microsomes (Sacchrosomes) at 10 uM using 7-ethoxyresorufin substrate by EROD assay relative to control
# Measurement parameters: probe 7-ethoxyresorufin
The following compounds are listed with their measured inhibition at 10 µM values.

| Compound | inhibition at 10 µM |
| --- | --- |
| O=C1C=CC(=O)c2c(O)ccc(O)c21 [NAPHTHAZALIN] | 79 to 99% |
| COc1c2ccoc2c(OCC=C(C)C)c2oc(=O)ccc12 [PHELLOPTERIN] | 87 to 97% |
| COc1c(C(=O)CC(=O)c2ccccc2)ccc2occc12 | 85 to 87% |
| Nc1nccc(-c2c[nH]c3ccc(Br)cc23)n1 [MERIDIANIN C] | 50 to 52% |

---

Recorded pIC50 values for a group of molecules are listed next.
# Study system: Cytochrome P450 1A2 (Homo sapiens)
# Procedure summary: Inhibition of human recombinant CYP1A2 expressed in HEK293 cells using 3-cyano-7-ethoxycoumarin substrate preincubated for 30 mins followed by substrate addition and measured after 60 mins by fluorescence assay relative to control
pIC50: −log10 of the molar value.
Recorded endpoint: pIC50

| Smiles structure | Study system | Observed measurement |
| --- | --- | --- |
| O=C1C=CC(=O)c2c(O)ccc(O)c21 | Cytochrome P450 1A2 (Homo sapiens) | 5.67 |
| COc1c2ccoc2cc2oc(=O)ccc12 | Cytochrome P450 1A2 (Homo sapiens) | 7.05 |
| CC1=CC(=O)c2c(O)cccc2C1=O | Cytochrome P450 1A2 (Homo sapiens) | 5.61 |
